experiment: cells; format: cell-based; settings: Mus musculus, N2a-cl3, 120 h
resultType: EC50 (nM)
Just the number please, in nM, no unit attached.

The following compounds have reported results that may help.
compound	resultType	measuredResult
COc1cc(CNCCO)cc(Br)c1OCc1ccccc1Cl	EC50	4830
N#Cc1sc2nc(-c3ccc4c(c3)OCO4)ccc2c1N	EC50	980
CCOc1ccc(/N=N/c2ccc(N)cc2N)cc1	EC50	4760
O=C(Nc1nc(-c2ccc(-c3ccccc3)cc2)cs1)C1CC1	EC50	250
Nc1c(/N=N/c2ccc(-c3ccc(/N=N/c4cc(S(=O)(=O)O)c5ccccc5c4N)cc3)cc2)cc(S(=O)(=O)O)c2ccccc12	EC50	450

Let us examine a further case.
[ask] Recorded EC50 of CN1CCN(c2ccc(Nc3ccnc4cc(Cl)ccc34)cc2)CC1 , please.
[reply] 1360

* * *

// reported pEC50 per item
test: cells; type: cell-based; settings: Mus musculus, N2a-cl3, 120 h
The scale used: pEC50 is minus the common logarithm of the concentration in molar units.

The following compounds have reported results that may help.
compound	measuredResult
CN(C)CCNc1nc(-c2ccc(Cl)cc2)nc2ccccc12	5.58
COc1ccc2cc3c(N)c(C(=O)Nc4ccc(C(C)=O)cc4)sc3nc2c1	7.10
CN1C[C@H](C(=O)N[C@]2(C)O[C@@]3(O)[C@@H]4CCCN4C(=O)[C@H](Cc4ccccc4)N3C2=O)C[C@@H]2c3cccc4[nH]cc(c34)C[C@H]21 [DIHYDROERGOTAMINE]	5.19

Let us examine a further case.
[ask] Recorded pEC50 of COc1cc(N)c(-c2ccc3cc(OC)c(OC)cc3n2)cc1OC , please.
[reply] 5.59

These data points were gathered from ChEMBL document CHEMBL3091297.
